Hello, the source for this data is paper PMC2246419, in case you need it.

study_target: p110α (Bos taurus, UniProt P32871)
Sequence (P32871 whole entry): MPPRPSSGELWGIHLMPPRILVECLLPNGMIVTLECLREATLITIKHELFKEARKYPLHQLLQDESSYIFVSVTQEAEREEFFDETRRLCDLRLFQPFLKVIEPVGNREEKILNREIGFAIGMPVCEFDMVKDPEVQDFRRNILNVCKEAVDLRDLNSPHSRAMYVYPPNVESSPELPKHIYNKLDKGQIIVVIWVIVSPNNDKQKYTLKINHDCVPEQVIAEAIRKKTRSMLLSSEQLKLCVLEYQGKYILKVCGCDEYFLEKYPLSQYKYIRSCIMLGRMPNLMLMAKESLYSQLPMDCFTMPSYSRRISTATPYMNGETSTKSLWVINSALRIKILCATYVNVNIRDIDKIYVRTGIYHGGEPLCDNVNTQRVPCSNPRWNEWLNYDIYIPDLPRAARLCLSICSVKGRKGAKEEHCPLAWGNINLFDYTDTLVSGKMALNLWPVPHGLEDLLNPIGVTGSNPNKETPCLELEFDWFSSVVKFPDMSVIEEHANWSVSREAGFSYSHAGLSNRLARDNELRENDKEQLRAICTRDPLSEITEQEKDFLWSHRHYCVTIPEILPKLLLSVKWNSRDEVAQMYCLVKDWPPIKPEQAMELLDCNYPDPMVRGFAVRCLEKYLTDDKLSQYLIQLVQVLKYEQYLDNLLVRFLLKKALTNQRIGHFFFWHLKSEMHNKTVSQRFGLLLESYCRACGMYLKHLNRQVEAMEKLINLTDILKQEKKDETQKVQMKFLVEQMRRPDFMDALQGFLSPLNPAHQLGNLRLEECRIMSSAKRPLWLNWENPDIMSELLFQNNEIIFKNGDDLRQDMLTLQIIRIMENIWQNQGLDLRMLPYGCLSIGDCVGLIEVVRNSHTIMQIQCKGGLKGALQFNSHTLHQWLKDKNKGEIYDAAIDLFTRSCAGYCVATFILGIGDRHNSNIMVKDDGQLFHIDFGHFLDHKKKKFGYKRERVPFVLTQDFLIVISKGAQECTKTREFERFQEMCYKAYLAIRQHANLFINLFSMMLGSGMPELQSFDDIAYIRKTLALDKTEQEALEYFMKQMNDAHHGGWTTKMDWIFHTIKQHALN
protocol: In vitro lipid kinase assay, GST-p110α
Assay type: biochemical
conditions: p110α IC50, 50 μM ATP; 100 μM PtdIns substrate
property_measured: IC50 (µM)

1. Nc1ccc(C(=O)Nc2cccc(-c3nc(N4CCOCC4)c4oc5ncccc5c4n3)c2)cn1
3
